Test system: tubulin
assayDetails: Tubulin polymerization assay
Assay type: biochemical, bovine
conditionSet: Tables 1 and 4; read-out: ITP HC50 ± SD (Inhibition of Tubulin Polymerization)
outcomeMeasure: IC50 (µM)
Give just the number in µM; leave the unit off.

// below: answered molecules
> print(dat)
                    structurenotation  observedmeasurement
1   Cc1ccc(C2=Nc3nc(C)ccc3C(=O)C2)cc1                  4.9
2  Cc1ccc2c(n1)N=C(c1ccc(Cl)cc1)CC2=O                   11
3  COc1ccc(C2=Nc3ncc(C)cc3C(=O)C2)cc1                  7.7

Prompt: IC50 lookup needed for Cc1ccnc2c1C(=O)CC(c1ccc(Cl)cc1)=N2 , thanks.
Completion: 4.8

Prompt: IC50 lookup needed for Cc1ccc(C2=Nc3nc(C)cc(C)c3C(=O)C2)cc1 , thanks.
Completion: 9.8

Prompt: IC50 lookup needed for Cc1ccc(C2=Nc3ncc(C)cc3C(=O)C2)cc1 , thanks.
Completion: 2.4

Prompt: IC50 lookup needed for Cc1cc(C)c2c(n1)N=C(c1ccc(Cl)cc1)CC2=O , thanks.
Completion: 32

----------
Tested on: HCT-116 colon cancer cell line
Under this convention, Fulfilled denotes GI50 strictly below 40 nM and Not fulfilled denotes GI50 at or above 40 nM.

Record excerpt, results attached:
> print(dat)
                                   molecule  categorylabel
1  COc1cccc(-c2cc(=O)c3cccnc3[nH]2)c1 [Compound 44]      Fulfilled
2  Cc1ccc2c(=O)cc(-c3cccc(Cl)c3)[nH]c2n1 [35']      Fulfilled
3  Cc1cc(C)c2c(=O)cc(-c3ccc4ccccc4c3)[nH]c2n1 [Compound 51]  Not fulfilled
4  COc1cccc(-c2cc(=O)c3cc(C)cnc3[nH]2)c1 [Compound 46]      Fulfilled

Prompt: For COc1ccc(C2=Nc3ncc(C)cc3C(=O)C2)cc1 [Compound 53] , is the recorded GI50 below the cut-off of 40 nM?
Completion: Not fulfilled

Prompt: For O=c1cc(-c2cccc(Cl)c2)[nH]c2ncccc12 [32'] , is the recorded GI50 below the cut-off of 40 nM?
Completion: Fulfilled

----------
# key: entry, value: log10(GI50)
System: NCI's 60 human tumor cell line
assayDetails: NCI 60 human tumor cell line in vitro screen (average / whole panel)
Format: cell-based
conditionSet: calculated from all cell lines tested, molar concentrations, read-out: average log GI50 (converted)
Answers are given as log10 of GI50 in µM.

Prompt: log10(GI50) lookup needed for Cc1cc(C)c2c(=O)cc(-c3cccc(F)c3)[nH]c2n1 , thanks.
Completion: -1.07

Prompt: log10(GI50) lookup needed for Cc1ccnc2c1C(=O)CC(c1cccc3ccccc13)=N2 , thanks.
Completion: -1.45

Prompt: log10(GI50) lookup needed for Cc1cc(C)c2c(n1)N=C(c1cccc3ccccc13)CC2=O , thanks.
Completion: 0.02

Prompt: log10(GI50) lookup needed for COc1ccc(-c2cc(=O)c3cccnc3[nH]2)cc1 , thanks.
Completion: 1.58

Prompt: log10(GI50) lookup needed for O=C1CC(c2ccc(F)cc2)=Nc2ncc(Cl)cc21 , thanks.
Completion: 1.34

Prompt: log10(GI50) lookup needed for Cc1ccc2c(n1)N=C(c1ccc3ccccc3c1)CC2=O , thanks.
Completion: 0.66

Prompt: log10(GI50) lookup needed for COc1ccccc1-c1cc(=O)c2cccnc2[nH]1 , thanks.
Completion: 1.61

Prompt: log10(GI50) lookup needed for Cc1cc(C)c2c(=O)cc(-c3ccc4ccccc4c3)[nH]c2n1 , thanks.
Completion: 1.13

Prompt: log10(GI50) lookup needed for COc1ccccc1-c1cc(=O)c2ccc(C)nc2[nH]1 , thanks.
Completion: 1.90

Prompt: log10(GI50) lookup needed for O=C1CC(c2ccc(F)cc2)=Nc2ncccc21 , thanks.
Completion: 1.66

----------
Let's go through some log10 GI50 measurements on OVCAR-3 ovarian cancer cell line together.
Answers are given as log10 of GI50 in nM.

Prompt: log10 GI50 lookup needed for Cc1cnc2c(c1)C(=O)CC(c1ccc(Cl)cc1)=N2 , thanks.
Completion: 3.35

----------
Let's go through some log10(GI50) measurements on OVCAR-3 ovarian cancer cell line together.
Answers are given as log10 of GI50 in nM.

// below: answered compounds
> print(dat)
                       structurenotation  observedmeasurement
1  COc1ccc(C2=Nc3nc(C)cc(C)c3C(=O)C2)cc1                 4.51
2     COc1ccc(C2=Nc3ncc(C)cc3C(=O)C2)cc1                 3.47
3     O=c1cc(-c2cccc(Cl)c2)[nH]c2ncccc12                 1.66

Prompt: Provide the documented log10(GI50) with OVCAR-3 ovarian cancer cell line as the system for Cc1cc(C)c2c(n1)N=C(c1cccc3ccccc13)CC2=O
Completion: 2.54

Prompt: Provide the documented log10(GI50) with OVCAR-3 ovarian cancer cell line as the system for Cc1ccc2c(=O)cc(-c3cccc(F)c3)[nH]c2n1
Completion: 1.29

----------
Tested on: NCI's 60 human tumor cell line
assayDetails: NCI 60 human tumor cell line in vitro screen (average / whole panel)
Type: cell-based
conditionSet: calculated from all cell lines tested, molar concentrations, read-out: average log GI50 (converted)
Just so you know, the groups by GI50 go like this: lower level (below 200 nM), middle level (200 nM to below 8000 nM), upper level (8000 nM or more)

Record excerpt, results attached:
> print(dat)
                                   compound  categorylabel
1  COc1ccc(C2=Nc3ncc(C)cc3C(=O)C2)cc1 [Compound 53]   middle level
2  Cc1ccnc2c1C(=O)CC(c1ccc3ccccc3c1)=N2 [Compound 48]   middle level
3  COc1ccc(C2=Nc3nc(C)ccc3C(=O)C2)cc1 [Compound 54]    upper level
4  COc1cccc(-c2cc(=O)c3cc(C)cnc3[nH]2)c1 [Compound 46]    lower level

Prompt: Class? Entry: Cc1cnc2c(c1)C(=O)CC(c1cccc3ccccc13)=N2 [Compound 44]
Completion: lower level

Prompt: Class? Entry: Cc1cccc(-c2cc(=O)c3c(C)ccnc3[nH]2)c1 [38']
Completion: lower level

----------
Tested on: OVCAR-3 ovarian cancer cell line
outcomeMeasure: GI50 (nM)
Give just the number in nM; leave the unit off.

// below: answered compounds
> print(dat)
                                   compound                      targetsystem  observedmeasurement
1  Cc1ccnc2c1C(=O)CC(c1ccc(Cl)cc1)=N2 [Compound 63]  OVCAR-3 ovarian cancer cell line                 3160
2  Cc1cccc(C2=Nc3ncc(C)cc3C(=O)C2)c1 [Compound 39]  OVCAR-3 ovarian cancer cell line                  251
3  Cc1ccc2c(n1)N=C(c1ccc(Cl)cc1)CC2=O [Compound 65]  OVCAR-3 ovarian cancer cell line                 2570

Prompt: GI50 lookup needed for Cc1ccnc2c1C(=O)CC(c1ccc(F)cc1)=N2 [Compound 57] , thanks.
Completion: 56200

Prompt: GI50 lookup needed for Cc1cc(C)c2c(=O)cc(-c3cccc(Cl)c3)[nH]c2n1 [36'] , thanks.
Completion: 170

Prompt: GI50 lookup needed for Cc1cnc2c(c1)C(=O)CC(c1ccc(F)cc1)=N2 [Compound 58] , thanks.
Completion: 22400

----------
Tested on: HCT-116 colon cancer cell line
assayDetails: NCI in vitro screen, colon cancer HCT-116
Type: cell-based
conditionSet: Homo sapiens; HCT-1.16 (head); HCT-116 (footnote); read-out: Cytotoxicity log GI50 (converted)
Under this convention, 1 (yes) denotes GI50 strictly below 10000 nM and 0 (no) denotes GI50 at or above 10000 nM.

Record excerpt, results attached:
> print(dat)
                                   molecule  categorylabel
1  Cc1cnc2c(c1)C(=O)CC(c1cccc3ccccc13)=N2 [Compound 44]        1 (yes)
2  Cc1ccnc2c1C(=O)CC(c1cccc3ccccc13)=N2 [Compound 43]        1 (yes)
3  Cc1cccc(C2=Nc3nc(C)cc(C)c3C(=O)C2)c1 [Compound 41]         0 (no)

Prompt: For COc1cccc(-c2cc(=O)c3ccc(C)nc3[nH]2)c1 [Compound 47] , is the recorded GI50 below the cut-off of 10000 nM?
Completion: 1 (yes)

----------
Let's go through some GI50 measurements on SK-MEL-5 melanoma cell line together.
Give just the number in µM; leave the unit off.

// below: answered compounds
> print(dat)
                        structurenotation  outcomemeasure  observedmeasurement
1   COc1cccc(-c2cc(=O)c3cc(C)cnc3[nH]2)c1            GI50               0.0257
2  COc1ccccc1-c1cc(=O)c2c(C)cc(C)nc2[nH]1            GI50                 33.9
3    Cc1cnc2c(c1)C(=O)CC(c1ccc(Cl)cc1)=N2            GI50                 2.19

Prompt: GI50 lookup needed for Cc1cc(C)c2c(=O)cc(-c3cccc(Cl)c3)[nH]c2n1 , thanks.
Completion: 0.117

Prompt: GI50 lookup needed for Cc1cnc2[nH]c(-c3cccc(F)c3)cc(=O)c2c1 , thanks.
Completion: 0.0282
